Source listed as ChEMBL document CHEMBL4196139.

PROCEDURE SUMMARY: AUC (0 to 24 hrs ) in ICR mouse at 10 mg/kg, iv by LC-MS/MS analysis
Format: ADME, organism-based
Design: dose 10 mg/kg, time < 24 hr, route intravenous
REPORTED CONDITIONS: in vivo
AUC(0-t) at 24 h overview
Number only, in ng·h/mL; omit the unit.

# count of solved cases: 3
SAMPLE SMILES | AUC(0-t) at 24 h, ng·h/mL
Clc1cccc(COc2cccc3onc(Nc4cccnc4)c23)c1 | 2200
Fc1ccc(Cl)c(COc2cccc3onc(Nc4cccnc4)c23)c1 | 1700
FC(F)(F)Oc1ccccc1COc1cccc2onc(Nc3cccnc3)c12 | 1400

Input line: Give AUC(0-t) at 24 h for the following compound: `Clc1cccc(Cl)c1COc1cccc2onc(Nc3cccnc3)c12`
Output line: 2600

====

PROCEDURE SUMMARY: Clearance in ICR mouse at 10 mg/kg, iv by LC-MS/MS analysis
Type: ADME, organism-based
REPORTED CONDITIONS: in vivo
MEASUREMENT LABEL: clearance (mL/min/kg)
Number only, in mL/min/kg; omit the unit.

# count of solved cases: 3
SAMPLE SMILES | clearance / mL/min/kg
Clc1cccc(COc2cccc3onc(Nc4cccnc4)c23)c1 | 80
Clc1cccc(Cl)c1COc1cccc2onc(Nc3cccnc3)c12 | 65
Fc1ccc(Cl)c(COc2cccc3onc(Nc4cccnc4)c23)c1 | 103

Moving on to the next compound.
Input line: Give clearance for the following compound: `FC(F)(F)Oc1ccccc1COc1cccc2onc(Nc3cccnc3)c12`
Output line: 130

====

Vd overview
PROCEDURE SUMMARY: Volume of distribution in ICR mouse at 10 mg/kg, iv by LC-MS/MS analysis
Assay type: ADME, organism-based
REPORTED CONDITIONS: in vivo
Number only, in L/kg; omit the unit.

# count of solved cases: 3
SAMPLE SMILES | UNIT DESCRIPTOR | Vd
Clc1cccc(Cl)c1COc1cccc2onc(Nc3cccnc3)c12 | L/kg | 6.9
FC(F)(F)Oc1ccccc1COc1cccc2onc(Nc3cccnc3)c12 | L/kg | 16.1
Fc1ccc(Cl)c(COc2cccc3onc(Nc4cccnc4)c23)c1 | L/kg | 12.5

Moving on to the next compound.
Input line: Give Vd for the following compound: `Clc1cccc(COc2cccc3onc(Nc4cccnc4)c23)c1`
Output line: 9.9

====

TARGET DESC: UniProt Q86VZ5
Sequence (Q86VZ5 whole entry): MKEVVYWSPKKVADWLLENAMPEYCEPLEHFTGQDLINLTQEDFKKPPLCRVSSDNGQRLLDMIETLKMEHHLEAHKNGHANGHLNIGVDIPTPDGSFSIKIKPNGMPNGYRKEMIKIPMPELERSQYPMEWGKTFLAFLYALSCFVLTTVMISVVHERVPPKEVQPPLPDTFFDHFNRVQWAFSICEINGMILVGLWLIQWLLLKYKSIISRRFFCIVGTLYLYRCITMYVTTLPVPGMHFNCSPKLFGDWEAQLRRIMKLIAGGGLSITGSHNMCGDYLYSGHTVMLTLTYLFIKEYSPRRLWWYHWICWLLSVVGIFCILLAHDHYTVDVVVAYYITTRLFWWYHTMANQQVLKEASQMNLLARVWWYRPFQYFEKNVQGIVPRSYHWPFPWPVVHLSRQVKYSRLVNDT
PROCEDURE SUMMARY: Inhibition of human SMS1 at 50 uM using C6-NBD-ceramide and DMPC as substrate preincubated for 5 mins followed by substrate addition and measured after 30 mins by HPLC analysis relative to control
MEASUREMENT LABEL: inhibition
Entry format: amount then unit.

# count of solved cases: 2
SAMPLE SMILES | RESULT
Fc1cccc(COc2cccc3onc(Nc4cccnc4)c23)c1 | 6%
Fc1ccc(Cl)c(COc2cccc3onc(Nc4cccnc4)c23)c1 | 44%

Input line: Give inhibition for the following molecule: `Clc1ccccc1COc1cccc2onc(Nc3cccnc3)c12`
Output line: 41%

Input line: Give inhibition for the following molecule: `Cc1cccc(COc2cccc3onc(Nc4cccnc4)c23)c1`
Output line: 20%

Input line: Give inhibition for the following molecule: `Clc1cccc(COc2cccc3onc(Nc4cccnc4)c23)c1`
Output line: 44%

Input line: Give inhibition for the following molecule: `c1ccc(-c2cc(COc3cccc4onc(Nc5cccnc5)c34)ccn2)cc1`
Output line: -6%
